- test target: human LTBR on cells (human, UniProt P36941 31-435)
- measurement notes: cell-based or functional assay
Listing: NFκB luc, 3.66 ng/ml, with x linker of selected binders
parameter: NFκB luc, 3.66 ng/ml, with x linker (RLU)

[[record]]
binder = "P1AE9459 (antibody, human IgG1, kappa, L234A L235A, V domains shown, human IgG1 PG LALA; from transgenic rabbit immunization) VH: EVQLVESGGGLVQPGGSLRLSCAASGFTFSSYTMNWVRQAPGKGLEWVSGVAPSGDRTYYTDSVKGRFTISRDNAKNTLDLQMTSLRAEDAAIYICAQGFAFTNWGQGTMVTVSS VL: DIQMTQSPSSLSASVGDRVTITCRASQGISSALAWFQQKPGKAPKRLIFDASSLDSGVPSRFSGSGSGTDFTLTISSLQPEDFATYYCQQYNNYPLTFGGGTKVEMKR"
measured_number = 24900

[[record]]
binder = "P1AE9452 (antibody, human IgG1, kappa, L234A L235A, V domains shown, human IgG1 PG LALA; from transgenic rabbit immunization; also called LTBR (9452)) VH: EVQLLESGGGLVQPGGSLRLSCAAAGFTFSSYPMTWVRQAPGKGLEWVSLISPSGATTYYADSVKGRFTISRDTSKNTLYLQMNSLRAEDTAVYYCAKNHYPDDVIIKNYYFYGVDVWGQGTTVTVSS VL: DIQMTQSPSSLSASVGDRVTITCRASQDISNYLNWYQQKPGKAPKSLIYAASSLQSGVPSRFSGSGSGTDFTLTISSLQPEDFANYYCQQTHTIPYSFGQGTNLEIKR"
measured_number = 20800

[[record]]
binder = "P1AF0080 (antibody, human IgG1, kappa, L234A L235A, V domains shown, human IgG1 PG LALA; from transgenic rabbit immunization; also called LTBR (0080)) VH: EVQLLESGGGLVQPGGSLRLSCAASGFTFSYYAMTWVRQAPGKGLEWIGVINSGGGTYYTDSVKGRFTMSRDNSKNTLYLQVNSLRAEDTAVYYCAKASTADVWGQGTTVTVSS VL: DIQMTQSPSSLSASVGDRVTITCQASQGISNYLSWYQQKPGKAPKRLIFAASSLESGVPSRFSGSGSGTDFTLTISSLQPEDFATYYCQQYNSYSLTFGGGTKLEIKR"
measured_number = 25200

[[record]]
binder = "P1AF0064 (antibody, human IgG1, kappa, L234A L235A, V domains shown, human IgG1 PG LALA constant regions; V domains from rat immunization; also called LTBR (0064)) VH: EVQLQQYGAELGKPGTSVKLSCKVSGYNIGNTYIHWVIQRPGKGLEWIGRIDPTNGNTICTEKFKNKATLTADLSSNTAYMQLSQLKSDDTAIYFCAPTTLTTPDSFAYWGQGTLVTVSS VL: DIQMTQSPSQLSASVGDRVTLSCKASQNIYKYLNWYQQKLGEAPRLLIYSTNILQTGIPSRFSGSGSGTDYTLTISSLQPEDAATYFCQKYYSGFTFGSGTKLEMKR"
measured_number = 38700

